test system: p38-delta; conditions: concentration: 1 μM, replicates: in singlicate; n = 1;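 further: KINOMEscan kinase panel screen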
Recorded %Inh for the following compounds
Readout label: %Inh (%)

[
  {
    "Compound": "CCC(=O)c1c(-c2ccccc2)c2cc(Cl)ccc2c(=O)n1Cc1cc(S(C)(=O)=O)n(CC(N)=O)n1",
    "Assay target": "p38-delta",
    "Readout label": "%Inh",
    "Measure unit": "%",
    "Endpoint value": 16
  },
  {
    "Compound": "O=C(NCc1cccs1)c1cc(C(=O)c2c(Cl)cccc2Cl)c[nH]1 [GW823670]",
    "Assay target": "p38-delta",
    "Readout label": "%Inh",
    "Measure unit": "%",
    "Endpoint value": 0
  },
  {
    "Compound": "COC(=O)c1c(-c2ccccc2)c2cc(Br)ccc2c(=O)n1Cc1ccc(NC(=O)CCC(=O)O)cc1",
    "Assay target": "p38-delta",
    "Readout label": "%Inh",
    "Measure unit": "%",
    "Endpoint value": 28
  },
  {
    "Compound": "CN1C(=O)C(Nc2cc(Cl)c(O)c(Cl)c2)=C(c2ccc(Cl)cc2)C1=O [SB-404321]",
    "Assay target": "p38-delta",
    "Readout label": "%Inh",
    "Measure unit": "%",
    "Endpoint value": 21
  }
]

###

tested on: FGFR4; conditions: concentration: 1 μM, replicates: in singlicate; n = 1
Catalogue of %Inh readings, one per entry.

[
  {
    "Compound": "COc1ccc(-c2cc3c(C)nc(N)nc3n([C@H]3CC[C@H](O)CC3)c2=O)cn1",
    "%Inh (%)": 0
  },
  {
    "Compound": "COc1ccc(CNC(=O)NC2CCN(c3ccnc(Nc4ccc(F)cc4)n3)C2)cc1 (stereo not drawn)",
    "%Inh (%)": 15
  },
  {
    "Compound": "Cc1cccc(-c2cc(-c3c[nH]nc3-c3ccccn3)ccn2)c1",
    "%Inh (%)": 4
  },
  {
    "Compound": "COc1cc(Nc2ccnc3ccc(C(F)(F)F)cc23)cc(OC)c1OC",
    "%Inh (%)": 11
  },
  {
    "Compound": "CCc1ccc(-c2ccc3c(c2)-c2nn(C)cc2S(=O)(=O)N3C)cc1",
    "%Inh (%)": 0
  },
  {
    "Compound": "CN1C(=O)C(Nc2cc(Cl)c(O)c(Cl)c2)=C(c2ccc(Cl)cc2)C1=O",
    "%Inh (%)": 0
  },
  {
    "Compound": "COC(=O)c1c(-c2ccccc2)c2cc(Br)ccc2c(=O)n1Cc1ccc(NC(=O)CCC(=O)O)cc1",
    "%Inh (%)": 0
  },
  {
    "Compound": "COc1cc2ncn(-c3cc(OCc4ccncc4Br)c(C(N)=O)s3)c2cc1OC",
    "%Inh (%)": 7
  },
  {
    "Compound": "COc1ccc(Nc2nccc(N3CCC(NS(=O)(=O)c4ccc(NC(C)=O)cc4)C3)n2)cc1 (stereo not drawn)",
    "%Inh (%)": 98.5
  }
]

###

tested on: RET; settings: concentration: 1 μM, replicates: in singlicate; n = 1

[
  {
    "Compound": "Nc1n[nH]c2nnc(-c3ccccc3)c(-c3ccccc3)c12",
    "Measure unit": "%",
    "%Inh": 0
  },
  {
    "Compound": "COc1ccc(Nc2nccc(N3CCC(NS(=O)(=O)c4ccc(NC(C)=O)cc4)C3)n2)cc1 (stereo not shown)",
    "Measure unit": "%",
    "%Inh": 28
  },
  {
    "Compound": "COc1cc(Nc2nccc(N3CCC(NC(=O)C4COc5ccccc5O4)C3)n2)cc(OC)c1OC (stereo not shown)",
    "Measure unit": "%",
    "%Inh": 2
  },
  {
    "Compound": "CCS(=O)c1ccc(-c2coc3ccc(-c4nnc(C)o4)cc23)cc1 (stereo not shown)",
    "Measure unit": "%",
    "%Inh": 0
  },
  {
    "Compound": "O=C1NC(=O)C(c2ccccc2)=C1Nc1cccc(O)c1",
    "Measure unit": "%",
    "%Inh": 0
  },
  {
    "Compound": "Fc1cccc(CSc2nnc(-c3ccc4c(c3)CCO4)o2)c1",
    "Measure unit": "%",
    "%Inh": 0
  },
  {
    "Compound": "O=C(Nc1ccc2c(c1)OCO2)NC1CCN(c2ccnc(NCc3ccc(F)cc3)n2)CC1",
    "Measure unit": "%",
    "%Inh": 21
  },
  {
    "Compound": "Nc1ncnc2c1ncn2-c1cccc2ccccc12",
    "Measure unit": "%",
    "%Inh": 0
  },
  {
    "Compound": "FC(F)(F)c1ccc(-c2ncn(CCCN3CCOCC3)c2-c2ccncc2)cc1",
    "Measure unit": "%",
    "%Inh": 20
  },
  {
    "Compound": "O=C(NCc1cccs1)c1cc(C(=O)c2c(Cl)cccc2Cl)c[nH]1",
    "Measure unit": "%",
    "%Inh": 2
  },
  {
    "Compound": "Cc1ccc(Oc2ccc(Nc3ncnc4cc[nH]c34)cc2C)cn1",
    "Measure unit": "%",
    "%Inh": 8
  },
  {
    "Compound": "Cl.c1ccc(Cn2cnc3cc(Nc4ncnc5ccccc45)ccc32)cc1",
    "Measure unit": "%",
    "%Inh": 3
  },
  {
    "Compound": "Cc1c(Cn2c(C)nn3c(=O)cc(N4CCO[C@H](C)C4)nc23)cccc1C(F)(F)F",
    "Measure unit": "%",
    "%Inh": 6
  },
  {
    "Compound": "CCC(=O)c1c(-c2ccccc2)c2cc(Cl)ccc2c(=O)n1Cc1cc(S(C)(=O)=O)n(CC(F)F)n1",
    "Measure unit": "%",
    "%Inh": 0
  },
  {
    "Compound": "Nc1n[nH]c2ncc(-c3ccccc3)cc12",
    "Measure unit": "%",
    "%Inh": 12
  },
  {
    "Compound": "COc1cccc(C2=C(N(C)c3ccccc3)C(=O)NC2=O)c1",
    "Measure unit": "%",
    "%Inh": 17
  },
  {
    "Compound": "CCn1c(-c2ccoc2)nc2cnccc21",
    "Measure unit": "%",
    "%Inh": 1
  },
  {
    "Compound": "Cl.NS(=O)(=O)c1cccc(Nc2cc(-c3ccc(F)cc3)n[nH]2)c1",
    "Measure unit": "%",
    "%Inh": 0
  },
  {
    "Compound": "O=C(Nc1n[nH]c2nc(-c3ccccc3)c(Cl)cc12)C1CC1",
    "Measure unit": "%",
    "%Inh": 0
  }
]

###

tested on: IKK-beta; construct: gene IKBKB; details: concentration: 1 μM, replicates: in singlicate; n = 1

[
  {
    "Molecule": "O=C(Nc1n[nH]c2nc(-c3ccccc3)c(Cl)cc12)C1CC1",
    "Measure unit": "%",
    "%Inh": 56
  },
  {
    "Molecule": "COc1cc2ncn(-c3cc(OCc4ccc(S(C)(=O)=O)cc4)c(C(N)=O)s3)c2cc1OC",
    "Measure unit": "%",
    "%Inh": 7
  },
  {
    "Molecule": "Cc1ccccc1COc1cc(-n2cnc3cc(Cl)ccc32)sc1C(N)=O",
    "Measure unit": "%",
    "%Inh": 0
  },
  {
    "Molecule": "Cc1nnc(-c2ccc3ncn(-c4ccc(S(C)=O)cc4)c3c2)o1 (centres unmarked)",
    "Measure unit": "%",
    "%Inh": 7
  },
  {
    "Molecule": "COc1ccc(CNC(=O)NC2CCN(c3ccnc(Nc4ccc(F)cc4)n3)C2)cc1 (centres unmarked)",
    "Measure unit": "%",
    "%Inh": 0
  },
  {
    "Molecule": "Cc1ccc(-c2ccc3c(ccc4sc5c(c43)NC[C@@H](C)N=C5N(C)C)n2)cn1",
    "Measure unit": "%",
    "%Inh": 0
  },
  {
    "Molecule": "CCn1c(-c2nonc2N)nc2ccccc21",
    "Measure unit": "%",
    "%Inh": 49
  },
  {
    "Molecule": "Cc1cccc(-c2cc(-c3c[nH]nc3-c3ccccn3)ccn2)c1",
    "Measure unit": "%",
    "%Inh": 25
  },
  {
    "Molecule": "Cn1c(=O)c(F)c(Nc2ccc(I)cc2F)c2c(=O)n(OC[C@H](O)CO)cnc21",
    "Measure unit": "%",
    "%Inh": 0
  },
  {
    "Molecule": "O=c1cc(N2CCOCC2)nc2n(Cc3ccc(F)c(Cl)c3)ccn12",
    "Measure unit": "%",
    "%Inh": 17
  },
  {
    "Molecule": "OCCCNc1nccc(-c2c(-c3cccc(C(F)(F)F)c3)nn3cc(C(F)(F)F)ccc23)n1",
    "Measure unit": "%",
    "%Inh": 0
  },
  {
    "Molecule": "Cc1cc(Nc2nc(-c3cccc(C)n3)nc3ccccc23)ccn1",
    "Measure unit": "%",
    "%Inh": 0
  },
  {
    "Molecule": "COc1cc2ncn(-c3cc(OCc4ccncc4Br)c(C(N)=O)s3)c2cc1OC",
    "Measure unit": "%",
    "%Inh": 3
  },
  {
    "Molecule": "COc1ccc(-n2cnc3c(N)ncnc32)cc1",
    "Measure unit": "%",
    "%Inh": 19
  },
  {
    "Molecule": "Nc1nc(-c2ccccc2F)c(-c2ccnc3ccccc23)s1",
    "Measure unit": "%",
    "%Inh": 9
  },
  {
    "Molecule": "O=C(NCc1cccs1)c1cc(C(=O)c2c(Cl)cccc2Cl)c[nH]1",
    "Measure unit": "%",
    "%Inh": 0
  },
  {
    "Molecule": "Cc1ccc(Oc2ccc(Nc3ncnc4cc[nH]c34)cc2C)cn1",
    "Measure unit": "%",
    "%Inh": 8
  },
  {
    "Molecule": "CN1C(=O)C(Nc2ccccc2)=C(c2ccccc2)C1=O",
    "Measure unit": "%",
    "%Inh": 0
  },
  {
    "Molecule": "CCCNC(=O)Nc1ccc(Oc2ncnc3ccn(C)c23)cc1",
    "Measure unit": "%",
    "%Inh": 0
  },
  {
    "Molecule": "CCn1c(-c2ccoc2)nc2cnccc21",
    "Measure unit": "%",
    "%Inh": 29
  }
]
